Test system: VCaP cells
Assay: Cell viability by MTT, 48 h
Format: cell-based
Conditions: Homo sapiens
pIC50: −log10 of the molar value.
reported-property: pIC50

INSERT INTO measurements (compound, reported_property, endpoint_result) VALUES
  ('OC1CCN(CCN2CCCn3c4ccccc4c4nc5ccccc5c2c43)CC1 [GSA0932]', 'pIC50', 5.55);
